Values compiled from ChEMBL document CHEMBL1201862.

- System: T47D
- protocol-description: NCI tumour cell line growth inhibition, 48 h
The source made the active and inactive calls. Rule as the data show it: active = GI50 up to about 1.1 µM and inactive = higher.
Classes used: TRUE for active, FALSE for inactive

{"columns": ["smiles-str", "classification"],
 "data": [
  ["Brc1ccc(/N=C/C=C(\\Nc2ccc(Br)cc2)C23CC4CC(CC(C4)C2)C3)cc1", "FALSE"],
  ["S=C=Nc1ccc(CSc2nc3ccccc3[nH]2)cc1", "FALSE"],
  ["CSC1=C(SC)C(=O)c2cn(C)c(=O)cc2C1=O", "FALSE"],
  ["Cc1nnc(CC#N)n1NC(=O)CC#N", "FALSE"],
  ["C/C(=N\\NC(=[Se])N(C)C)c1ccccn1", "TRUE"],
  ["CCCC(=O)NC(Nc1ccc(F)cc1)(C(F)(F)F)C(F)(F)F", "FALSE"],
  ["COC(=O)c1cc(OCc2cc(OCc3ccc(Br)cc3)cc(OCc3ccc(Br)cc3)c2)cc(OCc2cc(OCc3ccc(Br)cc3)cc(OCc3ccc(Br)cc3)c2)c1", "FALSE"],
  ["CC/C(Cl)=N\\OC(=O)Nc1ccc(F)c(Cl)c1", "FALSE"],
  ["Cc1cccc(Cn2c3c(c4cc(O)ccc42)C(=O)c2ccccc2C3=O)c1", "FALSE"],
  ["O=C1C(Cl)=C(Oc2ccc([N+](=O)[O-])cc2)C(=O)c2c(O)ccc(O)c21", "FALSE"]
]}
